# assayed.target: Recombinant human PDE4B (Homo sapiens (Human), UniProt Q07343)
# Sequence (Q07343 305-736 limits assumed): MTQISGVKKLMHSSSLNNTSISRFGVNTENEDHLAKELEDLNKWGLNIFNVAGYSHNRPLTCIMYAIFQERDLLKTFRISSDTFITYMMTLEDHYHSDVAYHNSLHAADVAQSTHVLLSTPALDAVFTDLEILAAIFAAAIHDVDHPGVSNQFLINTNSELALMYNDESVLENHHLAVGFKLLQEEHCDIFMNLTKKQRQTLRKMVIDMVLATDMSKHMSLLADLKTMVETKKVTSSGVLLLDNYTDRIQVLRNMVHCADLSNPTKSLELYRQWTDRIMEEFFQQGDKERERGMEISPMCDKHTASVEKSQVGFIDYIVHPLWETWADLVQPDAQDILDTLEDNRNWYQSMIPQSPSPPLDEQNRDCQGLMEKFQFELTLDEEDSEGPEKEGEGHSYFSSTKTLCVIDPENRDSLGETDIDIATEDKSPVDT
# experiment.summary: PDE4B enzyme inhibition, fluorescence polarization (Transcreener AMP2/GMP2)
# test.settings: PDE4B, 1 μM cAMP substrate; average in triplicate
reported.endpoint: pIC50
Lab note — pIC50 values are minus log10 of concentrations in M.

stdin: Consider the compound CCOc1cc([C@@H](CS(C)(=O)=O)n2c(=O)[nH]c3cc(F)ccc32)ccc1OC [Compound 1] and give its recorded pIC50.
stdout: 7.58
